- tgt: PARP-1 (Homo sapiens, UniProt P09874)
- Construct: purchased Enzo Life Sciences GmbH, Lörrach, Germany
- Sequence (P09874 whole entry): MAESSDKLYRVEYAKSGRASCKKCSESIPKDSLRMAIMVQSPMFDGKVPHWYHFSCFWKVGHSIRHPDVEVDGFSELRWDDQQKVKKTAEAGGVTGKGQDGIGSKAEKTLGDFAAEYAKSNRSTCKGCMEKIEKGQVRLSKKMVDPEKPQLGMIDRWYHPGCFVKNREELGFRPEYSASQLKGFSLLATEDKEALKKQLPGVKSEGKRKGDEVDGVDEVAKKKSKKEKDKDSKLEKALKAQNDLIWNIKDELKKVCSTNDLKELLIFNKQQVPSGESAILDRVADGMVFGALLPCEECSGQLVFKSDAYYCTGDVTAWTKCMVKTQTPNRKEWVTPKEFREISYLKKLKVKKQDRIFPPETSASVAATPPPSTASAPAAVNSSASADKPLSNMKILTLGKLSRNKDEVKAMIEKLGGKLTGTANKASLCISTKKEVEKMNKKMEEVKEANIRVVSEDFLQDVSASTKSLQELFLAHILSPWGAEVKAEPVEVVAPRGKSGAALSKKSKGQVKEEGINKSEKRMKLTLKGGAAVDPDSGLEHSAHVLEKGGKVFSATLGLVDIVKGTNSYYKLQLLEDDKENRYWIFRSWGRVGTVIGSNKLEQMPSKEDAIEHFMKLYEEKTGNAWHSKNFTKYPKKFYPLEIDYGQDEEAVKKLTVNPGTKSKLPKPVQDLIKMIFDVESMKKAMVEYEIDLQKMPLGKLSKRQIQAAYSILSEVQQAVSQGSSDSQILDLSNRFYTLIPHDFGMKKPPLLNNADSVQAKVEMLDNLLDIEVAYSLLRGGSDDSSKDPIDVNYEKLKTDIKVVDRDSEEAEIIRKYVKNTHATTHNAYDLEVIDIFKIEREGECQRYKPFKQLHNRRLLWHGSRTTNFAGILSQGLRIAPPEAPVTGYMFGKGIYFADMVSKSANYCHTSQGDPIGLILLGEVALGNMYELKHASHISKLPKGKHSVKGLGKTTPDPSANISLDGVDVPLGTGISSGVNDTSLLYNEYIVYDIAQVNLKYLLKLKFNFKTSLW
- test-details: PARP-1 autoparsylation assay (HTRF)
- Assay type: biochemical
- condition-notes: His-tagged Parp-1, autoparsylation HTRF
measurement-name: log10 IC50 (log10 of the value in µM)
Lab note - IC50 converted to log10 from values in µM.

[
  {
    "compound": "O=C(CCCc1nn2cc(F)cc2c(=O)[nH]1)N1CCC(c2nnc(-c3ccccc3)o2)CC1",
    "log10 IC50": 0.51
  },
  {
    "compound": "N#Cc1ccc(OC2CCN(C(=O)CCCc3nc4c(c(=O)[nH]3)COCC4)CC2)cc1",
    "log10 IC50": 0.51
  },
  {
    "compound": "COc1ccc(C(=O)C2CCN(C(=O)CCCc3cn4c(C)ccc4c(=O)[nH]3)CC2)cc1C",
    "log10 IC50": -0.09
  },
  {
    "compound": "Cc1cc2c(=O)[nH]c(CCCC(=O)N3CCC(C(=O)c4cnn(C)c4)CC3)cn2n1",
    "log10 IC50": 0.93
  },
  {
    "compound": "COc1ccc(C(=O)C2CCN(C(=O)CCCc3nc4c(C)csc4c(=O)[nH]3)CC2)cc1C",
    "log10 IC50": -0.36
  }
]

In plain terms, "CC(C)n1cc(C(=O)C2CCN(C(=O)CCCc3cn4cccc4c(=O)[nH]3)CC2)cn1" has a documented log10 IC50 of 0.88

Per the records, this compound ( COc1ccc(C(=O)C2CN(C(=O)CCCc3cn4cccc4c(=O)[nH]3)C2)cc1 [Compound D1] ) has log10 IC50 equal to 0.49

Entry under test: "Cc1csc2c(=O)[nH]c(CCCC(=O)N3CCC(c4nnc(-c5ccccc5)o4)CC3)nc12" . Its log10 IC50 was 0.18

Briefly, log10 IC50 measured for "Cn1ncc2c(=O)[nH]c(CCCC(=O)N3CCC(Oc4ccc(C#N)cc4)CC3)nc21" : 0.64

// log10 IC50 value for "Cc1cc2c(=O)[nH]c(CCCC(=O)N3CCC(Oc4ccc(C#N)cc4)CC3)nn2c1" : 0.11
